Molecular target: Voltage-dependent L-type calcium channel subunit alpha-1D (Rattus norvegicus, UniProt P27732)
Sequence (P27732 whole entry): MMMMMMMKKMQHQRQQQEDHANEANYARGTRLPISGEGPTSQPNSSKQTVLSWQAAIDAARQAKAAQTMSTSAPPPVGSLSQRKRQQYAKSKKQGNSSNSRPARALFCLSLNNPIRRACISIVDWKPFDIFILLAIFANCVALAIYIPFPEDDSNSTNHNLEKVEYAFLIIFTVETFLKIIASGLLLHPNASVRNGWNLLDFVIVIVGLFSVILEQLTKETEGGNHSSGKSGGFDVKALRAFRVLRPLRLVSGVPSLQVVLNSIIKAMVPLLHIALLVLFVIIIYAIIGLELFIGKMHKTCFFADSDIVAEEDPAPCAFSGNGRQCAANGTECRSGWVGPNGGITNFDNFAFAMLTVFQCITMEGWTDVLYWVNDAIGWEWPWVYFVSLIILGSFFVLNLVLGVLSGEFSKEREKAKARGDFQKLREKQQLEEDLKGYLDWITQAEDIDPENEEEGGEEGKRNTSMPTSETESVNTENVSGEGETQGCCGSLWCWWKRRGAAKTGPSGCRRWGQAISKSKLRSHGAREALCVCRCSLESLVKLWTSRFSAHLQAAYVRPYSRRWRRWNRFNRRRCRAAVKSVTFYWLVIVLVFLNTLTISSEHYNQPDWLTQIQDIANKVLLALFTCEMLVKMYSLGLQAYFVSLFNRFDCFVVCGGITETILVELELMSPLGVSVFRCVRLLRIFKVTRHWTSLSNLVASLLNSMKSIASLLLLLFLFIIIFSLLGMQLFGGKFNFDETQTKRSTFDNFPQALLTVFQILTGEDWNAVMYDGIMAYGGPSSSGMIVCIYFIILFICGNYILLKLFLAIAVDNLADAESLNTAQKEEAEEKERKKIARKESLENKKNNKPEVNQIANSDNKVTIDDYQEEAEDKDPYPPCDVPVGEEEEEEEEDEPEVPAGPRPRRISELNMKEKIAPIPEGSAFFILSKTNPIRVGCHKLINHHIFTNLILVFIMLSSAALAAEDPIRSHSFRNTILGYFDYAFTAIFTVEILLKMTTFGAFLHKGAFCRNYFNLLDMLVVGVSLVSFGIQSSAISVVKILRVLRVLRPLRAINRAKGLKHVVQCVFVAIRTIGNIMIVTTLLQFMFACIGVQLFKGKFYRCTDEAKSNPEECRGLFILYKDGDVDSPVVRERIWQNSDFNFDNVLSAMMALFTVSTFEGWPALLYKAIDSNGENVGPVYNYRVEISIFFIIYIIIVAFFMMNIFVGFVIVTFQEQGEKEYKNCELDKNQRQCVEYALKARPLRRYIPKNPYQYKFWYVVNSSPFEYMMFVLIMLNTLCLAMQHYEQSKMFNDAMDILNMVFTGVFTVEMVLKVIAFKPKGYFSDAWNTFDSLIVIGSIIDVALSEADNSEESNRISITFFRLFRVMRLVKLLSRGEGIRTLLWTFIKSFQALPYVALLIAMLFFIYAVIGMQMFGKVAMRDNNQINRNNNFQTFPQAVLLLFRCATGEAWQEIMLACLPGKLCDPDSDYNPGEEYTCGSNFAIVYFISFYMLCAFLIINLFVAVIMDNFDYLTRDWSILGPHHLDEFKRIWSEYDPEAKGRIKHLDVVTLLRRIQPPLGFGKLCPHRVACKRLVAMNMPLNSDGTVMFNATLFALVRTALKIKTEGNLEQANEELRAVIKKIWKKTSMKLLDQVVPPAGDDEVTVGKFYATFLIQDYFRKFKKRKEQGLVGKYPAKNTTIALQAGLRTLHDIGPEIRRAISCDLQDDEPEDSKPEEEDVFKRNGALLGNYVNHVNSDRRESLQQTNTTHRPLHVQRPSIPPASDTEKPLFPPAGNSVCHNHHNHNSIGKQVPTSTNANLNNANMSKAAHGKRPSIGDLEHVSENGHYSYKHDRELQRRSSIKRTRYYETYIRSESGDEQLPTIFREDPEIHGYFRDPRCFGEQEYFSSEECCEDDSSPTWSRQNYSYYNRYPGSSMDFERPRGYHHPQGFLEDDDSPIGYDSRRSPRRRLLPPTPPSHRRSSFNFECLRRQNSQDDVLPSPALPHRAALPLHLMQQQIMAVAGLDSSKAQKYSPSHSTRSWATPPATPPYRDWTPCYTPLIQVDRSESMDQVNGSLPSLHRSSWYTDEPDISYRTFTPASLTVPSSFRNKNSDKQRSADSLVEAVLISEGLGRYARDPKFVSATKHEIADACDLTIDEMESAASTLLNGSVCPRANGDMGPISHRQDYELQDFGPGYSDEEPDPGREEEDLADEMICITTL
Assay: Antagonist activity at rat Cav1.3 expressed in HEK293 cells assessed as inhibition of voltage pulse-induced calcium current by FLIPR calcium 4 assay
Label met when IC50 is strictly below 20 nM; otherwise label not met.

hey, is IC50 for C=C(C)C(=O)OCCOC(=O)C1=C(C)NC(C)=C(C(=O)OCC)C1c1cccc([N+](=O)[O-])c1 (stereo not drawn) lower than 20 nM or not?
met

CCOC(=O)C1=C(C)NC2=C(C(=O)OC2)C1c1cccc([N+](=O)[O-])c1 (stereo not drawn) ?
not met

COC(=O)C1=C(C)NC(C)=C(C(=O)OCCC#N)C1c1cccc([N+](=O)[O-])c1 (stereo not drawn) ?
not met
